Listing of entries alongside the reported melting point.

>  <Compound>
CN1CCCC(C2=C(C#N)C(c3cccc(C#N)c3Br)c3c[nH]nc3N2)C1 (centres undefined)

>  <melting point (°C)>
174

$$$$
>  <Compound>
CCCCCC1CCC2c3ccc(OCC)c(F)c3OC2C1 (centres undefined)

>  <melting point (°C)>
118

$$$$

====

Listing of entries alongside the reported melting point.

>  <Molecule>
CN(C(=O)c1ccc(N)cc1)c1ccccc1N

>  <melting point>
159 to 160 °C

$$$$
>  <Molecule>
O=c1[nH]c(=O)c2ccsc2[nH]1

>  <melting point>
> 300 °C

$$$$
>  <Molecule>
CC1=CC2=C(N3CN(N4CCOCC4)C=C3N=N2)N(c2ccccc2Cl)C1

>  <melting point>
251 to 254 °C

$$$$
>  <Molecule>
COc1ccc2oc(C(=O)CBr)cc2c1

>  <melting point>
86 to 87 °C

$$$$
>  <Molecule>
CCCCCCCC(=O)N[C@@H](Cc1ccc(O)cc1)C(=O)OC

>  <melting point>
76 °C

$$$$
>  <Molecule>
CN1CCC(OC2c3ccccc3CCn3c2nc(-c2ccc(Br)cc2)c3Cl)CC1 (stereo unspecified)

>  <melting point>
169 °C

$$$$
>  <Molecule>
CC(C)C(C(=O)O)c1ccc(Br)cc1 (stereo unspecified)

>  <melting point>
97 to 98 °C

$$$$
>  <Molecule>
O=c1c2c(Cc3ccccc3)n[nH]c2c2cccnc2n1-c1ccccc1

>  <melting point>
305 to 308 °C

$$$$
>  <Molecule>
CN(C)CCCCCOc1ccc(-c2nnc(CSCCOc3ccccc3)o2)cc1

>  <melting point>
51 to 54 °C

$$$$
>  <Molecule>
COCC(C)OC(=O)C(=O)Nc1nc(-c2ccccc2)cs1 (stereo unspecified)

>  <melting point>
152 to 155 °C

$$$$
>  <Molecule>
CC1=C(c2ccncc2)CC(C)C(=O)N1 (stereo unspecified)

>  <melting point>
148 to 150 °C

$$$$
>  <Molecule>
CC(=O)Nc1ccc2c(c1)N1CCN=C1S2

>  <melting point>
268 °C

$$$$
>  <Molecule>
CCCN(CCC)C(=O)/C=C/CSc1nc(N)cc(Cl)n1

>  <melting point>
139 to 142 °C

$$$$
>  <Molecule>
CC(C)(C(=O)O)S(=O)c1ccc2c(-c3ccc(Cl)cc3)noc2c1 (stereo unspecified)

>  <melting point>
184 to 185 °C

$$$$
>  <Molecule>
CCOC(=O)C(C#N)c1ncccc1N (stereo unspecified)

>  <melting point>
118 to 119 °C

$$$$
>  <Molecule>
CCCCc1ccc2c(c1)C(=O)N(c1ccc3c(ccn3C)c1)C2

>  <melting point>
167 to 168 °C

$$$$
>  <Molecule>
CON(C)C(=O)NC(CS)Cc1ccccc1 (single isomer, unassigned; (+))

>  <melting point>
50 °C

$$$$
>  <Molecule>
Fc1cccc(F)c1-c1c(Cl)nc(Cl)n1-c1ccc(Cl)cc1

>  <melting point>
123 to 125 °C

$$$$
>  <Molecule>
CC(C)(C)OC(=O)N1CCC(OCc2ccccc2)C1CC(=O)Cn1cnc2cccnc2c1=O (stereo unspecified)

>  <melting point>
229 °C

$$$$
>  <Molecule>
COC(=O)c1nc(-c2ccc(Cl)c(OC)c2F)nc(N)c1C(F)CBr (stereo unspecified)

>  <melting point>
144 to 146 °C

$$$$
>  <Molecule>
O=C1CCCN1CCc1ccccc1

>  <melting point>
50.5 to 52.5 °C

$$$$
>  <Molecule>
CON=C(C(=O)OC)c1cccc(O)c1

>  <melting point>
39.5 to 40.5 °C

$$$$
>  <Molecule>
O=C(N1CC(CCl)c2c1ccc1ccc(S(=O)(=O)N(Cc3ccccc3)Cc3ccccc3)cc21)C(F)(F)F (stereo unspecified)

>  <melting point>
119 to 121 °C

$$$$
>  <Molecule>
CC(C)n1nc(-c2c(-c3ccccc3)nn3ccc(OC4CCOCC4)cc23)ccc1=O

>  <melting point>
210 to 211 °C

$$$$
>  <Molecule>
CCS(=O)(=O)N(C)[C@@H]1c2cc([N+](=O)[O-])ccc2OCC[C@H]1O (relative stereo)

>  <melting point>
133 to 135 °C

$$$$
>  <Molecule>
CC(=O)SCCC(=O)N1c2ccccc2C(C)(C)C1C(N)=O (stereo unspecified)

>  <melting point>
156 to 158 °C

$$$$
>  <Molecule>
COc1ccc(-c2noc3ccsc23)cc1

>  <melting point>
93 to 94 °C

$$$$
>  <Molecule>
CC(=O)NCCC1CCc2ccc3ocnc3c21 (stereo unspecified)

>  <melting point>
89 to 92 °C

$$$$
>  <Molecule>
N=C1SCCN1c1ccccc1[N+](=O)[O-]

>  <melting point>
127 °C

$$$$
>  <Molecule>
COc1ccc(Cl)c(C)c1C=O

>  <melting point>
86 to 88 °C

$$$$
>  <Molecule>
CCCc1nn(C)c2c(=O)[nH]c(-c3cc(-c4nccn4C)ccc3OCC)nc12

>  <melting point>
199 to 202 °C

$$$$

These measurements were taken from a melting point compilation (Tetko et al.; mined from patent text by program, amines drawn as free bases though some values may be those of a salt).
